B1: CPEB3 Ribozyme (parent)
chain: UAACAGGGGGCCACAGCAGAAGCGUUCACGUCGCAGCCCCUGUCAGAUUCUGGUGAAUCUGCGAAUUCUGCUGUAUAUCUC

# Variants of: B1
# PROCEDURE TEXT: self-cleavage, relative activity (ratio to wild type); higher = more cleavage; in vitro, sequencing
Each record's class is read off its self-cleavage using these ranges: label 0 = under 0.3, label 1 = from 0.3 up to 0.9, label 2 = 0.9 and over

{"columns": ["MUTANT LABEL", "LABEL"],
 "data": [
  ["G53U C68U", "label 2"],
  ["U72C A77G", "label 2"],
  ["A21U G33A", "label 0"],
  ["A13U U48C", "label 1"],
  ["G7A C62U", "label 0"],
  ["U26C C68A", "label 0"],
  ["U25C U76G", "label 1"],
  ["A20G C32U", "label 0"],
  ["G63C U74C", "label 2"],
  ["U69C A75G", "label 1"],
  ["A13C C50A", "label 1"],
  ["C32A G55A", "label 1"],
  ["C11U A28U", "label 1"],
  ["U43A A57U", "label 2"],
  ["U26C G63C", "label 1"],
  ["A21U G53A", "label 0"],
  ["G30A U49A", "label 0"],
  ["A35G U58A", "label 2"],
  ["G9U C14U", "label 0"],
  ["A28G G73C", "label 2"],
  ["U72A C81A", "label 2"],
  ["G6A A13C", "label 1"],
  ["G33C G52A", "label 0"],
  ["G53C C62G", "label 0"],
  ["U60A U78G", "label 1"],
  ["C12U C81U", "label 2"],
  ["A56C A64G", "label 1"],
  ["U31A G36U", "label 0"],
  ["G30C A65G", "label 0"],
  ["U69G U80C", "label 1"],
  ["U72A U80C", "label 2"],
  ["C37U G73A", "label 2"],
  ["U78C U80A", "label 2"],
  ["A3G A18C", "label 1"],
  ["C59A A75U", "label 0"],
  ["G24C U60A", "label 1"],
  ["G36C G61C", "label 0"],
  ["A5C U80C", "label 2"],
  ["A13G C40A", "label 0"],
  ["A15U C81U", "label 2"],
  ["A13U A77G", "label 2"]
]}
